molecular target: prothrombinase (Homo sapiens, UniProt P00734); construct: purchased Haematologic Technologies Inc. (Essex Junction, Vt.); test: Assay measuring thrombin formation (prothrombinase inhibition by peptides, DAPA fluorescence); format: biochemical; conditions: factor Va 4 nM, factor Xa 10 nM, prothrombin 350 nM, PCPS 10 μM; peptide preincubated with factor Va
No end group written: not given here.

SUBSTANCE | IC50
DYDYQ [DYDYQ, Asp-Tyr-Asp-Tyr-Gln] | 1600 nM

* * *

molecular target: prothrombin (Homo sapiens); construct: purchased Haematologic Technologies Inc. (Essex Junction, Vt.); assay: KD of peptide for prothrombin, from kinetics of prothrombinase inhibition; assay type: biochemical; conditions: kinetic model FIG. 7; read-out: KD of inhibitor interaction with prothrombin
No end group written: not given here.
READOUT_LABEL: Kd

SUBSTANCE | READOUT_LABEL | EXPERIMENTAL_VALUE
DYDYQ [DYDYQ, Asp-Tyr-Asp-Tyr-Gln] | Kd | ~850 nM

* * *

biological target: prothrombinase (Homo sapiens, UniProt P00734); construct: purchased Haematologic Technologies Inc. (Essex Junction, Vt.); assay: Assay measuring thrombin formation (prothrombinase inhibition by peptides, DAPA fluorescence); format: biochemical; conditions: calculated from IC50 of 1.6 μM as in FIG. 2C legend; read-out: Ki for inhibition of prothrombinase
pKi: −log10 of the molar value. No end group written: not given here.

SUBSTANCE | pKi
DYDYQ [DYDYQ, Asp-Tyr-Asp-Tyr-Gln] | 6.07
